Tested on: THP-1 viability, CellTiter-Glo luminescence, 72 h
Assay: THP-1 cell cytotoxicity, dose response, cytotoxicity control for Salmonella PhoP regulon inhibitors, S. typhimurium screen hits (AID 2253)
The compounds listed here are annotated with their EC50.

{"compound": "CN(C)c1ccc(/C=C/c2ccc3ccccc3[n+]2C)cc1", "EC50": "0.3 µM"}
{"compound": "CCN(CC)c1ccc(S(=O)(=O)Nc2cc(Cl)ccc2Cl)cc1NC(=S)NC(=O)C1CCCC1", "EC50": "40 µM"}
{"compound": "Nc1nc(F)nc2c1ncn2[C@@H]1O[C@H](CO)[C@@H](O)[C@H]1O", "EC50": "0.3 µM"}
{"compound": "COC(=O)C(C)NC(=S)N1CCN(c2c(F)cc3c(=O)c(C(=O)O)cn(C4CC4)c3c2OC)CC1C (stereo unspecified)", "EC50": "20 µM"}
{"compound": "O=C(Nc1ccc(Br)cc1)c1ccc(F)c(S(=O)(=O)NCc2cccs2)c1", "EC50": "21.7 µM"}
{"compound": "CN1CCN(C(c2ccccn2)c2cc(Cl)c3cccnc3c2O)CC1 (stereo unspecified)", "EC50": "9.2 µM"}
{"compound": "CNC[C@H](CC1CCCCC1)NC[C@H](Cc1ccccc1)NCCC12CC3CC(CC(C3)C1)C2", "EC50": "3.28 µM"}
{"compound": "Cc1cc(/C=N/n2c(COc3ccccc3)nc3ccccc3c2=O)c(O)c([N+](=O)[O-])c1", "EC50": "4.71 µM"}
{"compound": "c1ccc2c(c1)ncn2CCCCOc1ccc2c(c1)CCC2", "EC50": "15 µM"}
{"compound": "COc1cccc(C(=O)Oc2c(CN3CCOCC3)cc(Cl)c3cccnc23)c1", "EC50": "7.11 µM"}
{"compound": "Cc1ccc(/C=C/C(=O)c2ccccc(=O)c2O)cc1C", "EC50": "17.2 µM"}
{"compound": "CCOC(=O)N1CCN(S(=O)(=O)c2ccc(C(=O)NNc3nc4cc(C)cc(C)c4s3)cc2)CC1", "EC50": "2.88 µM"}
{"compound": "Nc1ncn(C2O[C@H](CO)[C@@H](O)[C@H]2O)c(=O)n1 (stereo partly specified)", "EC50": "10.8 µM"}
{"compound": "Cc1ccc2c(c1)[nH]c1c(N3CCN(Cc4ccccc4)CC3)ncnc12", "EC50": "18.9 µM"}
{"compound": "Oc1ccc(Cl)cc1Cc1cc(Cl)ccc1O", "EC50": "19.6 µM"}
{"compound": "Cc1ccc2[nH]c3c(NCc4ccccc4)ncnc3c2c1", "EC50": "17.1 µM"}
{"compound": "O=[N+]([O-])c1ccc(Sc2nc3ccccc3o2)c([N+](=O)[O-])c1", "EC50": "1.94 µM"}
{"compound": "O=C(N/N=C/C1CC=CCC1)c1ccc(Cl)cc1O (stereo unspecified)", "EC50": "26.4 µM"}
{"compound": "O=C1c2ccccc2-c2onc3ccc(NCc4ccco4)c1c23", "EC50": "17.9 µM"}
{"compound": "CN(CCO)c1cc(Sc2nc3ccccc3s2)c2nonc2c1[N+](=O)[O-]", "EC50": "15.8 µM"}
{"compound": "CC(C)COc1ccc(Cc2cnc(N)nc2N)cc1", "EC50": "36.9 µM"}
{"compound": "O=C1c2ccccc2NC(c2ccc(-c3cccc(Cl)c3)o2)N1O (stereo unspecified)", "EC50": "24.6 µM"}
{"compound": "NCC12CC3CC(C1)CC(c1ccc(Br)cc1)(C3)C2", "EC50": "8.36 µM"}
{"compound": "COc1ccc2c(c1)[nH]c1c(N3CCN(Cc4ccc5c(c4)OCO5)CC3)ncnc12", "EC50": "6.85 µM"}
{"compound": "Cc1cccc(C)c1NC(=O)CCCSc1nnc(-c2ccc(Cl)cc2)n1-c1ccccc1", "EC50": "27.6 µM"}
{"compound": "O=C(N/N=C/c1cc(O)ccc1Br)c1cccnc1", "EC50": "2.25 µM"}
{"compound": "Cc1ccc(C(=O)CSC2=C(C#N)C(c3ccco3)CC(=O)N2)c(C)c1 (stereo unspecified)", "EC50": "33.7 µM"}
{"compound": "Clc1ccc(CN2CCC(c3nc4ccc(Cl)cc4[nH]3)CC2)cc1", "EC50": "29.4 µM"}
{"compound": "Cc1ccccc1OCc1n(CC(=O)OC2CC(C)CCC2C(C)C)c2ccccc2[n+]1C (stereo unspecified)", "EC50": "2 µM"}
{"compound": "CC(C(=O)NC1CCS(=O)(=O)C1)N1C(=O)/C(=C/c2ccc(Cl)cc2)SC1=S (stereo unspecified)", "EC50": "48.9 µM"}
{"compound": "Cc1cc(/C=N/n2cnnc2)c(C)n1-c1ccc(OCc2ccc(F)cc2)cc1", "EC50": "12.7 µM"}
